Test system: mustard
Assay: Test F preemergence test
Assay type: in vivo, Brassica nigra
Conditions: 16 g ai/ha, preemergence; scale 0 to 100
Source text: Seeds of plant species selected from bermudagrass (Cynodon dactylon), Surinam grass (Brachiaria decumbens), large crabgrass (Digitaria sanguinalis), green foxtail (Setaria viridis), goosegrass (Eleusine indica), johnsongrass (Sorghum halepense), kochia (Kochia scoparia), pitted morningglory (Ipomoea lacunosa), purple nutsedge (Cyperus rotundus), common ragweed (Ambrosia elation), mustard (Brassica nigra), guineagrass (Panicum maximum), […] […]
# reported Plant response rating, Black Mustard; entries follow
Give the value as a plain number.

Example cases with answers are listed next.
Cc1cc([S+]([O-])Cc2c(C(F)(F)F)nn(C)c2OCC(F)(F)F)[n+]([O-])cc1Cl (stereo not shown) = 90
CCn1nc(C(F)(F)F)c(CS(=O)(=O)c2cccc[n+]2[O-])c1OCC(F)(F)F = 0
Cn1nc(C(F)(F)F)c(C[S+]([O-])c2ccc(Cl)c[n+]2[O-])c1OCC(F)(F)F (racemic) = 20
Cc1cc[n+]([O-])c(S(=O)(=O)Cc2c(C(F)(F)F)nn(C)c2OCC(F)(F)F)c1 = 40

*Q* Which Plant response rating, Black Mustard is reported for this compound? CC(Oc1c(C[S+]([O-])c2ccc(Cl)c[n+]2[O-])c(C(F)(F)F)nn1C)C(F)(F)F (stereo not shown)
*A* 0

*Q* Need Plant response rating, Black Mustard of Cn1nc(C(F)(F)C(F)(F)F)c(C[S+]([O-])c2cccc[n+]2[O-])c1OCC(F)(F)F (stereo not shown) , thanks.
*A* 100

*Q* Could you share which Plant response rating, Black Mustard value was measured for Cn1nc(OC(F)F)c(CS(=O)(=O)c2cccc[n+]2[O-])c1C(F)(F)F ?
*A* 0

Sourced from patent US20100298141A1
